biological target: human glucagon receptor (human) (UniProt P47871); assay: cell-based or functional assay
Sequence (P47871 26-477): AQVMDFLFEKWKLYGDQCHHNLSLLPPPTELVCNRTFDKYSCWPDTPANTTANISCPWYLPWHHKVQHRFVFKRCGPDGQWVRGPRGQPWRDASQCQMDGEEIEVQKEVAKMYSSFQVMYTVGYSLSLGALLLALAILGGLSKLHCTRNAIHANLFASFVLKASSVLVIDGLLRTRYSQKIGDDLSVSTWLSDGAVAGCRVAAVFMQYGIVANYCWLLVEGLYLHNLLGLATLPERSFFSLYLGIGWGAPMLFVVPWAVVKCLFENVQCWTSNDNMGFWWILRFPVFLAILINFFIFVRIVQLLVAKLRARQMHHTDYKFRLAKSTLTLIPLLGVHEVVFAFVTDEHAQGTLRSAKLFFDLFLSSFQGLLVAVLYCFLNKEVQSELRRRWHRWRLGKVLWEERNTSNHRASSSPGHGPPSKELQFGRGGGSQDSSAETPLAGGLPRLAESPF
This section presents binders with their documented Relative cAMP EC50 values.
Entry rule: numbers only, all in nM.

Known Relative cAMP EC50 results, listed for orientation:
| binder | value.kind | unit.spec | numeric.readout |
| --- | --- | --- | --- |
| YXQGTFTSDFSXXLDKKAQXAFIEYLLEAGPSSGAPPPSGS (Aib, Orn, αMeL, D-Ala, acylated Lys, C-terminal amide; synthetic construct; SITE 2: note = 2-Aminoisobutyric Acid; SITE 12: note = L-ornithine; SITE 13: note = alpha-methyl-leucine; SITE 17: note = Lysine is chemically modified through conjugation of the epsilon-amino group of the Lysine side chain with (2-[2-(2-Amino-ethoxy)-ethoxy]-acetyl)-(gamma-Glu)) [Example 209] | Relative cAMP EC50 | nM | 3.08 |
| YXQGTXTSDXXIXLDXKAQXXFIEXLQEGGPSSGEPPPE (synthetic construct; SITE 2: note = 2-Aminoisobutyric Acid; SITE 6: note = alpha-methyl-2-fluoro-L-phenylalanine; SITE 10: note = 3-(4-Pyridyl)-L-alanine; SITE 11: note = alpha-methyl-L-serine; SITE 13: note = alpha-methyl-leucine; SITE 16: note = L-ornithine; SITE 17: note = Lysine is chemically mo) [Example 439] | Relative cAMP EC50 | nM | 4.38 |

Data request: Return Relative cAMP EC50 (reported value) for this binder: YXQGTXTSDYXIXLDXKAQXAFIEYLLEGGPSSGEPPPE (synthetic construct; SITE 2: note = 2-Aminoisobutyric Acid; SITE 6: note = alpha-methyl-L-phenylalanine; SITE 11: note = alpha-methyl-L-serine; SITE 13: note = alpha-methyl-leucine; SITE 16: note = L-ornithine; SITE 17: note = Lysine is chemically modified through conjugation of the epsilon-amino gr) [Example 420]
Data returned: 2.49

Data request: Return Relative cAMP EC50 (reported value) for this binder: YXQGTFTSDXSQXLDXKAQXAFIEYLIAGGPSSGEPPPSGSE (synthetic construct; SITE 2: note = 2-Aminoisobutyric Acid; SITE 10: note = 3-(4-Pyridyl)-L-alanine; SITE 13: note = alpha-methyl-leucine; SITE 16: note = L-ornithine; SITE 17: note = Lysine is chemically modified through conjugation of the epsilon-amino group of the Lysine side chain with (gamma-Gl)) [Example 1008]
Data returned: 7.47

Data request: Return Relative cAMP EC50 (reported value) for this binder: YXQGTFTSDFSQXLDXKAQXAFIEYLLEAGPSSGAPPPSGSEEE (not fully specified; synthetic construct; SITE 2: note = 2-Aminoisobutyric Acid; SITE 13: note = alpha-methyl-leucine; SITE 16: note = L-ornithine; SITE 17: note = Lysine is chemically modified through conjugation of the epsilon-amino group of the Lysine side chain with (gamma-Glu)2-CO-(CH2)16-CO2H; SITE 20: note = 2-Am) [Example 1039]
Data returned: 7.46

Data request: Return Relative cAMP EC50 (reported value) for this binder: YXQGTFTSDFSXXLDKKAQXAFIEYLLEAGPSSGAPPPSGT (non-natural residues, (γGlu)2-C18 diacid lysine acylation, C-terminal amide; synthetic construct; SITE 2: note = 2-Aminoisobutyric Acid; SITE 12: note = L-ornithine; SITE 13: note = alpha-methyl-leucine; SITE 17: note = Lysine is chemically modified through conjugation of the epsilon-amino group of the Lysine side chain with (gamma-Glu)2-CO-(CH2)16-CO2H; SITE 20: note = 2-Am) [Example 204]
Data returned: 6.92
